I'd be grateful if you could share measured furin cleavage Z-score for these entries.
- targetDesc: furin, P09958;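 also: purified furin at 1:10 enzyme:substrate in 50 mM HEPES pH 7.5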
- Sequence (P09958 whole entry): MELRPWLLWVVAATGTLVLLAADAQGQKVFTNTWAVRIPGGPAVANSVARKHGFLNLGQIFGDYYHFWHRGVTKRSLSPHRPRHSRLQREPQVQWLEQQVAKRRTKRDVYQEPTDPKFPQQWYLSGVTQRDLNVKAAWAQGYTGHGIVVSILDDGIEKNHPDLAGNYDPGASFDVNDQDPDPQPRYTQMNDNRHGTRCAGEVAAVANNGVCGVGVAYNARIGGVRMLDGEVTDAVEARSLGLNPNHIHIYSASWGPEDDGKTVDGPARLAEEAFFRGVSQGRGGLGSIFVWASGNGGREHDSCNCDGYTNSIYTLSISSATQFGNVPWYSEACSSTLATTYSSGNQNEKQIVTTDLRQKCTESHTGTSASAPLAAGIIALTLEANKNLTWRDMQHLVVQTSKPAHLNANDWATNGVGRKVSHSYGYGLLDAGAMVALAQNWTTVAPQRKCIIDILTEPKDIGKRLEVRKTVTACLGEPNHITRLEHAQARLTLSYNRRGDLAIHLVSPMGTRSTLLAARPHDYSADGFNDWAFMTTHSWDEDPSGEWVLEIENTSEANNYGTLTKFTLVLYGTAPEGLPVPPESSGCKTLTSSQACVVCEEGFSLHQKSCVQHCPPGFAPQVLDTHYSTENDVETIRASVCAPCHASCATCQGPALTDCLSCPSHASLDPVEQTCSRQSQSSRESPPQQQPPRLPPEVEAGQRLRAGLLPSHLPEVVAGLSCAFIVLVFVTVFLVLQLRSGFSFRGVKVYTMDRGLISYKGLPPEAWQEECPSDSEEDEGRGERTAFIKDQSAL
- assayComment: furin cleavage Z-score vs untreated control; higher = more cleavage, active = 3.5 or more, inactive = 1 or less, 8 variable residues between constant flanks
- assayConditions: 15 min
This is one part of the list. The true hit rate is not given.
Answers are plain numbers.

{"columns": ["residueCodes", "furin cleavage Z-score"],
 "data": [
  ["CARCRRALRRAGNASASA [FS-1687]", 3.85],
  ["CACRARGMRAAGNASASA [FS-15]", -0.9],
  ["CARCIRAFCRAGNASASA [FS-2897]", 0.945]
]}

furin cleavage Z-score recorded for this sequence, CARARRAVDKAGNASASA [FS-2252] , is 6.96
